Read-out: sulfotransferase 2A1 (SULT2A1), SULT2A1 (gene 6822)
Assay: LTEA_HepaRG_SULT2A1: Life Technologies and Expression Analysis (LTEA) Assay for sulfotransferase 2A1 (SULT2A1) using HepaRG (AID 2283531)
Details: mRNA level, 48 h; actives raise or lower the signal
Calls of active or inactive are those of the source. Rule for the calls: active = hit-call score of the fitted dose curve at least 0.9, where 1 is the maximum; inactive = score below 0.9.
Reply using exactly one outcome from label 1 for active, label 0 for inactive

Worked set:
Query block: Assay result, entry `CC(=O)[O][Hg][c]1ccccc1` — outcome?
Result block: label 1

Query block: Hi, do you know how `Cn1sc(Cl)cc1=O` came out in this test?
Result block: label 0

Query block: // param item: `Oc1cccc2cccnc12` ; yields the recorded call
Result block: label 0

---
Query block: Record lookup: outcome of this test for CCC(=O)C(CC(C)N(C)C)(c1ccccc1)c1ccccc1 (configuration not stated) ?
Result block: label 0

Query block: Per the records of this test, what outcome belongs to `C=C(C)C(=O)[O][Sn]([CH2]CCC)([CH2]CCC)[CH2]CCC` ?
Result block: label 1

Query block: Recorded test outcome, item `O=C(Nc1ccc2[nH]ccc2c1)c1cc2cc(F)ccc2n1Cc1cccc(F)c1`
Result block: label 1

Query block: Recorded test outcome, item O=C1C2(Cl)C3(Cl)C4(Cl)C(Cl)(Cl)C5(Cl)C3(Cl)C1(Cl)C5(Cl)C24Cl (configuration not stated)
Result block: label 1

Query block: I'd appreciate the recorded outcome for `O=c1[nH]c(=O)[nH]c(=O)[nH]1` from this test.
Result block: label 0

Query block: Which outcome did this test record for the molecule `CCC(C)(C)c1ccc(O)c(C(C)(C)CC)c1` ?
Result block: label 0

* * *

Test system: IYD (gene 389434)
Assay: CCTE_GLTED_hIYD: CCTE's human Iodotyrosine Deiodinase (xIYD) Inhibition Assay, Great Lakes Toxicology and Ecology Division (GLTED) Lab (AID 2284317);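 note: cell-free human IYD enzyme made in baculovirus insect cells; iodide freed from monoiodotyrosine measured by cerium arsenite color change at 420 nm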
Activity calls are given as the source filed them. Rule for the calls: active = hit-call score of the fitted dose curve at least 0.9, where 1 is the maximum; inconclusive = response in the unintended direction; inactive = score below 0.9.
Hi! Could you answer with just one of these? 1 = active, 0 = inactive

Query block: Please state the recorded outcome for this compound: `O=C(O)C(F)(F)C(F)(F)C(F)(F)C(F)(F)C(F)(F)C(F)(F)C(F)(F)C(F)(F)C(F)(F)C(F)(F)F`
Result block: 1

Query block: Answer briefly: the call reported for `C=CC#N` in this assay.
Result block: 0

Query block: Assay result, entry `O=C1C(Cl)=C(Cl)C(=O)c2ccccc21` — outcome?
Result block: 1

---
Query block: # lookup: test call for O=C1C2(Cl)C3(Cl)C4(Cl)C(Cl)(Cl)C5(Cl)C3(Cl)C1(Cl)C5(Cl)C24Cl (stereo unspecified)
Result block: 1

Query block: GET /call?item= `COP(=O)(OC)O/C(=C\Cl)c1cc(Cl)c(Cl)cc1Cl` returns the recorded outcome of this test.
Result block: 0

Query block: Write down the call the test reported for this compound. Item: `CCC[CH2][Sn]([CH2]CCC)([CH2]CCC)[O]C(=O)c1ccccc1`
Result block: 0

* * *

Experiment: CEETOX_H295R_OHPREG: CeeTox H295R High-throughput Steroidogenesis Assay for OH-Pregnenolone (OHPREG) (AID 2283434)
Details: actives raise or lower the signal
Active and inactive are the calls of the source. Rule for the calls: active = hit-call score of the fitted dose curve at least 0.9, where 1 is the maximum; inactive = score below 0.9.
Observation type: AC50

Query block: Return value of AC50 for input `C[C@@H]1C[C@@H]([C@H](O)CC2CC(=O)NC(=O)C2)C(=O)[C@@H](C)C1` , no commentary.
Result block: inactive

Query block: Let me know recorded AC50 for CC1(C)CCC(Cc2ccc(Cl)cc2)C1(O)Cn1cncn1 (stereo not drawn) , thanks.
Result block: 143 nM (active)

Query block: Look up and state reported AC50 for `O=C(Nc1ccc2[nH]ccc2c1)c1cc2cc(F)ccc2n1Cc1cccc(F)c1`
Result block: 1110 nM (active)

Query block: Give the value of AC50 reported for the following: Fc1ccc(C2(Cn3cncn3)OC2c2ccccc2Cl)cc1 (stereo not drawn)
Result block: 645 nM (active)

Query block: Tell us which AC50 value is on record for `CCOP(=S)(OCC)SCCS(=O)(=O)CC`
Result block: inactive

***
Query block: Could you please provide reported AC50 for `C[C@]12CCC(=O)C[C@@H]1CC[C@@H]1[C@@H]2CC[C@]2(C)[C@@H](O)CC[C@@H]12` ? Thanks!
Result block: 79.1 nM (active)

Query block: Please report the measured AC50 for `C(=NC1CCCCC1)=NC1CCCCC1`
Result block: inactive

Query block: For the molecule `CCOP(=S)(OCC)Oc1nc(Cl)c(Cl)cc1Cl` , give its measured AC50 value.
Result block: 80500 nM (active)
